# targetOrSystem: récepteurs des benzodiazépines
# assayText: Benzodiazepine receptor affinity: [3H]flunitrazepam binding, modified method of Squires and Braestrup
# statedConditions: concentration inhibiting by 50 % the specific binding of 0,6 nanomoles (3H) flunitrazépam; rat forebrain membrane preparations; read-out: CI50 (the source's name)
We'd kindly ask you to apply these IC50 classes: lower band: < 200 nM; central band: ≥ 200 nM and < 1000 nM; upper band: ≥ 1000 nM

compound=C=C(c1ccccc1)c1cn2c(cc(OC)c3cc(CC)ccc32)n1 classassignment="lower band"
compound=CCc1ccc2c(c1)c(O)cc1nc(C(=O)c3ccccc3)cn12 classassignment="central band"
compound="CCc1ccc2c(c1)c(OC)cc1nc(C(OC(C)=O)c3ccccc3)cn12 (stereo not shown)" classassignment="upper band"

Entry `CCc1ccc2c(c1)c(OC)c(CC)c1nc(C(=O)c3ccccc3)cn12` belongs to which category? lower band

Try this compound next: CCc1ccc2c(c1)c(OC)cc1nc(C(C)(O)c3ccccc3)cn12 (stereo not shown) upper band

Try this compound next: `CCc1ccc2c(c1)c(OC)c(C)c1nc(C(=O)c3ccccc3)cn12` lower band

Try this compound next: `CCc1ccc2c(c1)c(C)cc1nc(C(=O)c3ccccc3)cn12` central band

Try this compound next: `CCc1ccc2c(c1)c(OC)cc1nc(C(=O)c3ccccc3)c(Br)n12` upper band

Try this compound next: `CCc1ccc2c(c1)c(OC(C)=O)cc1nc(C(=O)c3ccccc3)cn12` central band

FYI, the data here is from patent EP0107988A2.
